- Organism: Rattus norvegicus
- test.name: DrugMatrix - Regimen: Daily Repeat
- Assay type: toxicity, organism-based, Sprague-Dawley
- Parameters: regimen Daily Repeat, gender Male, age 6-8 weeks
- condition.notes: in vivo, po, 120 mg/kg, 120 h, tissue Blood, route oral GAVAGE, dose level High, time 5 day, vehicle 100 % WATER
property.measured: ABSOLUTE EOSINOPHIL (cells/µL)
# number only, unit cells/µL dropped from output

Lookup: Read off the recorded ABSOLUTE EOSINOPHIL for COCCc1ccc(OCC(O)CNC(C)C)cc1 (configuration not stated)
Found: 380

###

The reader will find reported CREATININE values listed item by item below.
- Organism: Rattus norvegicus
- test.name: DrugMatrix - Regimen: Daily Repeat
- Format: toxicity, organism-based, Sprague-Dawley
- Set-up: regimen Daily Repeat, gender Male, age 6-8 weeks
- condition.notes: in vivo, po, 0 mg/kg, 120 h, tissue Plasma, route oral GAVAGE, dose level Control, time 5 day, vehicle .5 % CMC
# number only, unit mg/dL dropped from output

Please review the entries below; each comes with its answer.
- CCOP(=S)(OCC)Oc1nc(Cl)c(Cl)cc1Cl: 0.23
- CCn1cc(C(=O)O)c(=O)c2cc(F)c(N3CCNCC3)cc21: 0.22
- CCCN1C[C@H](CSC)C[C@@H]2c3cccc4[nH]cc(c34)C[C@H]21 [PERGOLIDE]: 0.21

Lookup: Read off the recorded CREATININE for Cc1ccc(/N=C/N(C)/C=N/c2ccc(C)cc2C)c(C)c1
Found: 0.22

Lookup: Read off the recorded CREATININE for CCCCc1oc2ccccc2c1C(=O)c1cc(I)c(OCCN(CC)CC)c(I)c1
Found: 0.75

Lookup: Read off the recorded CREATININE for O=C(CCCN1CC=C(n2c(=O)[nH]c3ccccc32)CC1)c1ccc(F)cc1
Found: 0.58

Lookup: Read off the recorded CREATININE for CN1CCN(CCCN2c3ccccc3Sc3ccc(Cl)cc32)CC1
Found: 0.17

###

- Species on record: Rattus norvegicus
- test.name: DrugMatrix - Regimen: Daily Repeat
- Type: toxicity, organism-based, Sprague-Dawley
- Parameters: regimen Daily Repeat, gender Male, age 6-8 weeks
- condition.notes: in vivo, po, 0 mg/kg, 120 h, tissue Plasma, route oral GAVAGE, dose level Control, time 5 day, vehicle 100 % WATER
property.measured: CREATININE (mg/dL)
# number only, unit mg/dL dropped from output

Please review the entries below; each comes with its answer.
* Nc1c2c(nc3ccccc13)CCCC2 | 0.58
* C[C@](N)(Cc1ccc(O)c(O)c1)C(=O)O | 0.26
* N[C@@H](Cc1ccc(O)c(O)c1)C(=O)O | 0.17

Lookup: Read off the recorded CREATININE for c1ccc([C@H]2CN3CCSC3=N2)cc1
Found: 0.18

Lookup: Read off the recorded CREATININE for NCCCCCC(=O)O
Found: 0.16

Lookup: Read off the recorded CREATININE for CC(O)CO (stereo not given)
Found: 0.16

###

- Organism: Rattus norvegicus
- test.name: DrugMatrix - Regimen: Daily Repeat
- Format: toxicity, organism-based, Sprague-Dawley
- Set-up: regimen Daily Repeat, gender Male, age 6-8 weeks
- condition.notes: in vivo, po, 0 mg/kg, 120 h, tissue Plasma, route oral GAVAGE, dose level Control, time 5 day, […]
Param threshold (300 u/L) applies to ALKALINE PHOSPHATASE; output true when value >= threshold, false when value < threshold.

* O=c1oc2ccccc2c(O)c1Cc1c(O)c2ccccc2oc1=O | true
* OC(Cn1cncn1)(Cn1cncn1)c1ccc(F)cc1F | false
* O=NN(CCCl)C(=O)NC1CCCCC1 | false
* CC(C)(Oc1ccc(Cl)cc1)C(=O)O | true
* CC(C)C(=O)Nc1ccc([N+](=O)[O-])c(C(F)(F)F)c1 [FLUTAMIDE] | true
* Cc1noc(NS(=O)(=O)c2ccc(N)cc2)c1C | true

Lookup: Does the reported ALKALINE PHOSPHATASE for O=C(O)CCCc1ccc(N(CCCl)CCCl)cc1 fall at or above the 300 u/L mark?
Found: false

Lookup: Does the reported ALKALINE PHOSPHATASE for CCOC(=O)C1=C(COCCN)NC(C)=C(C(=O)OC)C1c1ccccc1Cl (centres undefined) fall at or above the 300 u/L mark?
Found: false

Lookup: Does the reported ALKALINE PHOSPHATASE for CCC(C)n1ncn(-c2ccc(N3CCN(c4ccc(OCC5COC(Cn6cncn6)(c6ccc(Cl)cc6Cl)O5)cc4)CC3)cc2)c1=O (centres undefined) fall at or above the 300 u/L mark?
Found: false

Lookup: Does the reported ALKALINE PHOSPHATASE for Cc1oncc1C(=O)Nc1ccc(C(F)(F)F)cc1 [LEFLUNOMIDE] fall at or above the 300 u/L mark?
Found: true

Lookup: Does the reported ALKALINE PHOSPHATASE for C[C@@H]1CN(c2c(F)c(N)c3c(=O)c(C(=O)O)cn(C4CC4)c3c2F)C[C@H](C)N1 fall at or above the 300 u/L mark?
Found: false

Lookup: Does the reported ALKALINE PHOSPHATASE for CN(C)c1nc(N(C)C)nc(N(C)C)n1 fall at or above the 300 u/L mark?
Found: false

Lookup: Does the reported ALKALINE PHOSPHATASE for Cc1ccc(-c2cc(C(F)(F)F)nn2-c2ccc(S(N)(=O)=O)cc2)cc1 fall at or above the 300 u/L mark?
Found: false

Lookup: Does the reported ALKALINE PHOSPHATASE for C[C@H]1O[C@@H](O[C@H]2[C@@H](O)C[C@H](O[C@H]3[C@@H](O)C[C@H](O[C@H]4CC[C@@]5(C)[C@H](CC[C@@H]6[C@@H]5C[C@@H](O)[C@]5(C)[C@@H](C7=CC(=O)OC7)CC[C@]65O)C4)O[C@@H]3C)O[C@@H]2C)C[C@H](O)[C@@H]1O fall at or above the 300 u/L mark?
Found: true

###

- Species on record: Rattus norvegicus
- test.name: DrugMatrix - Regimen: Daily Repeat
- Assay type: toxicity, organism-based, Sprague-Dawley
- Parameters: regimen Daily Repeat, gender Male, age 6-8 weeks
- condition.notes: in vivo, po, 0 mg/kg, 72 h, tissue Blood, route oral GAVAGE, dose level Control, time 3 day, vehicle .5 % CMC
The reader will find reported MEAN CORPUSCULAR VOLUME values listed item by item below.

Please review the entries below; each comes with its answer.
- OCCN(CCO)c1nc(N2CCCCC2)c2nc(N(CCO)CCO)nc(N3CCCCC3)c2n1: 59.45 fL
- N=C(N)NCCN1CCCCCCC1: 59.45 fL
- CCn1cc(C(=O)O)c(=O)c2cc(F)c(N3CCNCC3)cc21: 63.52 fL
- C1CCC(C(CC2CCCCN2)C2CCCCC2)CC1 (stereo not given): 64.1 fL
- NC1=NC(=O)C(c2ccccc2)O1 (stereo not given): 64.32 fL
- Cc1nc2n(c(=O)c1CCN1CCC(c3noc4cc(F)ccc34)CC1)CCCC2: 59.76 fL
- ClC(Br)Br: 61.4 fL
- CC1CC(OC(=O)C(O)c2ccccc2)CC(C)(C)C1 (stereo not given) [CYCLANDELATE]: 59.45 fL
- CC(C)(C)NC(=O)[C@@H]1C[C@@H]2CCCC[C@@H]2CN1C[C@@H](O)[C@H](Cc1ccccc1)NC(=O)[C@H](CC(N)=O)NC(=O)c1ccc2ccccc2n1: 63.47 fL

Attention now turns to another entry.
Lookup: Read off the recorded MEAN CORPUSCULAR VOLUME for CCOP(=S)(OCC)Oc1nc(Cl)c(Cl)cc1Cl
Found: 66.25 fL

###

- Species: Rattus norvegicus
- test.name: DrugMatrix - Regimen: Daily Repeat
- Assay type: toxicity, organism-based, Sprague-Dawley
- Set-up: regimen Daily Repeat, gender Male, age 6-8 weeks
- condition.notes: in vivo, iv, 0 mg/kg, 120 h, tissue Blood, dose level Control, time 5 day, vehicle 100 % SALINE
Starred links: 1 amine or outer side, 2 acyl side, 3 side chain; linkers in the order of their positions; H or OH if unused. Positions of bridges follow the written chain, without caps; N, C: chain ends. Non-standard residues stand in square brackets, D forms with d. Residues, ends and D or L forms follow the SMILES beside them. Chains are numbered I, II in the order given. Actinocin(9to1) = Cc1c2oc3c(C)ccc(C(=O)[*:1])c3nc-2c(C(=O)[*:2])c(N)c1=O; NMeV = CN[C@H](C(=O)O)C(C)C; Sar = CNCC(=O)O
The reader will find reported EOSINOPHIL values listed item by item below.
# number only, unit % dropped from output

Please review the entries below; each comes with its answer.
* Cc1ccc(N(CC2=NCCN2)c2cccc(O)c2)cc1 | 0.17
* Cc1c2oc3c(C)ccc(C(=O)N[C@@H]4C(=O)N[C@H](C(C)C)C(=O)N5CCC[C@H]5C(=O)N(C)CC(=O)N(C)[C@@H](C(C)C)C(=O)O[C@@H]4C)c3nc-2c(C(=O)N[C@@H]2C(=O)N[C@H](C(C)C)C(=O)N3CCC[C@H]3C(=O)N(C)CC(=O)N(C)[C@@H](C(C)C)C(=O)O[C@@H]2C)c(N)c1=O [DACTINOMYCIN] (I: T[dV]P[Sar][NMeV] / II: T[dV]P[Sar][NMeV]; ester I:1-I:C, II:1-II:C; linker I:N-II:N via Actinocin(9to1)) | 0.17
* COc1cc2c3cc1Oc1cc(ccc1O)C[C@@H]1c4c(cc(OC)c(O)c4Oc4ccc(cc4)C[C@@H]3N(C)CC2)CC[N+]1(C)C.[Cl-] | 1.17

Attention now turns to another entry.
Lookup: Read off the recorded EOSINOPHIL for CC[C@]1(O)C[C@H]2CN(CCc3c([nH]c4ccccc34)[C@@](C(=O)OC)(c3cc4c(cc3OC)N(C=O)[C@H]3[C@@](O)(C(=O)OC)[C@H](OC(C)=O)[C@]5(CC)C=CCN6CC[C@]43[C@@H]65)C2)C1
Found: 0
